The measurements presented in this section are drawn from PubChem BioAssay (NCI).

- System: ACHN renal
- MEASUREMENT PROTOCOL: NCI tumour cell line growth inhibition, 48 h
Each entry below carries its recorded GI50.

Field: example entries. Status: answers known.
- COMPOUND: "CCCN(CCC)c1ccc(C=O)c(C)c1"
  GI50: "49.4 µM"
- COMPOUND: "COc1cc(/C=C/C(=O)c2c(-c3ccc(F)cc3)nc3sc(C)nn23)cc(OC)c1OC"
  GI50: "1.93 µM"
- COMPOUND: "CN1CCN(CCCN2c3ccccc3Sc3ccc(Cl)cc32)CC1"
  GI50: "5.93 µM"
- COMPOUND: "CC[PH+](CC)CC.CC[PH+](CC)CC.[Au]"
  GI50: "17.6 µM"
- COMPOUND: "O=[N+]([O-])c1ccc2c(c1)C(c1ccccc1Cl)=Nc1c(n[nH]c1-c1cccnc1)N2"
  GI50: "> 25 µM"

Turning now to a further compound:
// lookup GI50 for `COC(=O)c1oc2c(C(=O)/C=C/c3ccc(OC)cc3)c(OCCN3CCOCC3)ccc2c1C`
1.73 µM
